scaled log2 fold change values by entry
B1: library; numbered along this chain (parent)
chain: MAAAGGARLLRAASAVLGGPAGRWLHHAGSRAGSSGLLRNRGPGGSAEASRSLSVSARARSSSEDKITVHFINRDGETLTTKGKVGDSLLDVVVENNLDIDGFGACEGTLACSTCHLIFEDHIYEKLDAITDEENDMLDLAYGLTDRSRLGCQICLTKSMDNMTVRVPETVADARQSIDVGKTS

Variants of: B1
Test: scaled log2 fold change in cell abundance, elesclomol vs control (0 = silent mean, 1 = nonsense mean) (scaled log2 ratio); higher = higher viability under elesclomol (loss of FDX1 cuproptosis function);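 note: variant abundance is its share of total variant reads in each endpoint sample, from next-generation sequencing of the integrated ORF PCR-amplified out of genomic DNA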
Settings: with ABC1 FDX1 KO; elesclomol 5 nM; glucose 10 mM; 14 days
Respond using a number only.

Example entries and their recorded answers appear below.
{"Variant Name": "E134K", "Observable": "scaled log2 fold change", "Number": 1.1}
{"Variant Name": "V94D", "Observable": "scaled log2 fold change", "Number": -0.313}
{"Variant Name": "E77M", "Observable": "scaled log2 fold change", "Number": -0.575}
{"Variant Name": "L117V", "Observable": "scaled log2 fold change", "Number": 0.152}
{"Variant Name": "D132Y", "Observable": "scaled log2 fold change", "Number": 0.176}

Query :: Any idea what its scaled log2 fold change is? The variant is S52K
Result :: 0.174

Query :: Same question, R175I this time
Result :: -0.385

Query :: Same question, I154T this time
Result :: -0.043

Query :: Same question, G42D this time
Result :: -0.168

Query :: Same question, A28T this time
Result :: -0.152

Query :: Same question, G76I this time
Result :: 0.0447

Query :: Same question, K66A this time
Result :: -0.0856

Source of measurements: the supplement of paper PMC12855868
